molecular target: FL hMALT1 enzyme (Homo sapiens, UniProt Q9UDY8); test: biochemical;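 further: Cell-free protease assay: enzyme preincubated with compound 30 min at room temperature, then cleavage of fluorogenic Ac-LVSR-AMC substrate (100 µM) tracked by fluorescence (ex 360/em 460 nm)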
Sequence (Q9UDY8 whole entry): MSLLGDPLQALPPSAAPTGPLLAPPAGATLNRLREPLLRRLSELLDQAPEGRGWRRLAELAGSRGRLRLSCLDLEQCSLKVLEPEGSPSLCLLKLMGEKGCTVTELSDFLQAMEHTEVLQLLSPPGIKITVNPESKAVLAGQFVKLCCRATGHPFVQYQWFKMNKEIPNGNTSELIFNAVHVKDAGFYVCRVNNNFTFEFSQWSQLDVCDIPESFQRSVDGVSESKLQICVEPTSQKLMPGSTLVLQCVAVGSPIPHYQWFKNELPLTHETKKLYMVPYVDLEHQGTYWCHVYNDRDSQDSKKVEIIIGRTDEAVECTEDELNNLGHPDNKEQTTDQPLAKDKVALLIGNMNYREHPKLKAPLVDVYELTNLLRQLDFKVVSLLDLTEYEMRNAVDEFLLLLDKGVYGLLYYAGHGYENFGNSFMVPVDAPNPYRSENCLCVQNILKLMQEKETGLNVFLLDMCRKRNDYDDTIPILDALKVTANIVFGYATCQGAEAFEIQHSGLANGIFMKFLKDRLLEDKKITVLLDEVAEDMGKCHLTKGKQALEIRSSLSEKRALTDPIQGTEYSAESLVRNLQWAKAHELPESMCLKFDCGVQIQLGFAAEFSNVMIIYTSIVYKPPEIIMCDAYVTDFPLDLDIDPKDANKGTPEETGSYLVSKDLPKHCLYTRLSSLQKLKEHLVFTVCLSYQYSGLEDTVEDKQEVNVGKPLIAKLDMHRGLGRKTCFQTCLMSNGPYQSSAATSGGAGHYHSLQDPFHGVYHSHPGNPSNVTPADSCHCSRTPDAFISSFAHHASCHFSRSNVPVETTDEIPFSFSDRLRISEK
Where a name gives a salt, the structure may show the parent alone.
readout.name: IC50 (nM)

Solved cases (10 shown):
CN(C(=O)OC1CNC1)[C@@H](c1ccc(NC2Cc3ccccc3C2(C)C)cc1)C(F)(F)F (some centres unmarked) [Example 60, Hydrochloride]; 53
CN(C(=O)C1COCC(=O)N1)[C@@H](c1ccc(NC2Cc3ccccc3C2(C)C)cn1)C(F)(F)F (single isomer, unassigned) [Example 161]; 310
CN(C(=O)CCO)[C@@H](c1ccc(NC2Cc3ccccc3C2(C)C)cc1)C(F)(F)F (single isomer, unassigned) [Example 35]; 27
CN(C(=O)C1CCS(=O)(=O)CC1)[C@@H](c1ccc(NC2Cc3c(F)ccc(F)c3C2)cn1)C(F)(F)F; 460
CN(C(=O)[C@H]1C[C@H](N(C)C)C1)[C@@H](c1ccc(NC2Cc3ccccc3C2(C)C)nc1)C(F)(F)F (single isomer, unassigned) [Example 114]; 190
CN(C(=O)C1CN2CCC1CC2)[C@@H](c1ccc(NC2Cc3ccccc3C2(C)C)cn1)C(F)(F)F (single isomer, unassigned) [Example 141]; 210
CN(C(=O)C1CCS(=O)(=O)CC1)[C@@H](c1ccc(NC2Cc3ccc(Cl)c(Cl)c3C2)cn1)C(F)(F)F (single isomer, unassigned) [Example 278]; 350
CN(C(=O)C1CNC(=O)CO1)[C@@H](c1ccc(NC2Cc3ccccc3C2(C)C)cn1)C(F)(F)F (single isomer, unassigned) [Example 134]; 160
CN(C(=O)C12CC(NS(C)(=O)=O)(C1)C2)[C@@H](c1ccc(N[C@H]2Cc3ccc(Cl)cc3C2)cn1)C(F)(F)F; 94
CN(C(=O)C12CC(NS(C)(=O)=O)(C1)C2)[C@@H](c1ccc(NC2Cc3ccc(Cl)c(Cl)c3C2)cn1)C(F)(F)F (single isomer, unassigned) [Example 323]; 14

1: CN(C(=O)N1CCC(O)CC1)[C@@H](c1ccc(NC2Cc3ccccc3C2(C)C)cc1)C(F)(F)F (single isomer, unassigned) [Example 23]
2: CN(C(=O)C1CC2(CCN2)C1)[C@@H](c1ccc(NC2Cc3ccccc3C2(C)C)cn1)C(F)(F)F (single isomer, unassigned) [Example 154]
3: CN(C(=O)[C@H]1CCC(=O)NC1)[C@@H](c1ccc(NC2Cc3ccc(Cl)c(Cl)c3C2)cn1)C(F)(F)F (single isomer, unassigned) [Example 321]
Lookup: Hey, quick one: sort these by IC50, low to high? Return the labels ranked in the requested order, please.
Found: 3, 2, 1

1: CN(C(=O)C1CCNCC1)[C@@H](c1ccc(NC2Cc3ccccc3C2(C)C)nc1)C(F)(F)F (single isomer, unassigned) [Example 149]
2: CN(C(=O)C1(NS(C)(=O)=O)CC1)[C@@H](c1ccc(NC2Cc3ccc(Cl)c(F)c3C2)cn1)C(F)(F)F (some centres unmarked)
Lookup: Hi team, can someone confirm which has the larger IC50: 1 or 2 ? Thanks. Field: selected label. Fill in the label of the entry you choose.
Found: 1
(1: 240 nM, 2: 120 nM)

Measured values drawn from patent US20260184687A1 for this set.
